Hi there, I'd appreciate the recorded IP for every entry that follows.
Species on record: Rattus norvegicus
Assay: Open TG-GATES - Regimen: Single
Type: toxicity, organism-based, Sprague-Dawley
Parameters: regimen Single, gender Male, age 6 weeks
Conditions: in vivo, po, 0 mg/kg, 9 h, tissue Plasma, route gavage, dose level Control
Give bare numbers, in mg/dL.

Worked cases, IP given:
CC1=C(CC(=O)O)c2cc(F)ccc2/C1=C\c1ccc([S+](C)[O-])cc1 (stereo not given) :: 10.1
CC[C@H]1[C@@H]2C[C@H]3[C@@H]4N(C)c5ccccc5[C@]45C[C@@H]([C@@H]2[C@H]5O)N3[C@@H]1O :: 10.4
ClC(Cl)(Cl)Cl [CARBON TETRACHLORIDE] :: 10.7
CCc1oc2ccccc2c1C(=O)c1cc(Br)c(O)c(Br)c1 :: 11
CN(C)CCC=C1c2ccccc2COc2ccccc21 [DOXEPIN] :: 9.7
O=NN(CCCl)C(=O)NC1CCCCC1 :: 11
OCCOCCN1CCN(C(c2ccccc2)c2ccc(Cl)cc2)CC1 (stereo not given) [HYDROXYZINE] :: 10.1
CC(C)N(CCC(C(N)=O)(c1ccccc1)c1ccccn1)C(C)C (stereo not given) [DISOPYRAMIDE] :: 9.2

Go through the items and report each one's IP.
1. CCC1(c2ccccc2)C(=O)NC(=O)NC1=O
2. CN(C)C(=N)N=C(N)N

Result:
1. 10.4
2. 10.5

---

Hi there, I'd appreciate the recorded LDH for every entry that follows.
Organism: Rattus norvegicus
Test: Open TG-GATES - Regimen: Single
Type: toxicity, organism-based, Sprague-Dawley
Parameters: regimen Single, gender Male, age 6 weeks
Conditions: in vivo, po, 0 mg/kg, 9 h, tissue Plasma, route gavage, dose level Control
Numbers only, in IU/L.

OCCOCCN1CCN(C(c2ccccc2)c2ccc(Cl)cc2)CC1 (stereo not given) [HYDROXYZINE] :: 55.4

Go through the items and report each one's LDH.
1. CCC1(c2ccccc2)C(=O)NC(=O)NC1=O [PHENOBARBITAL]
2. CC(C)N(CCC(C(N)=O)(c1ccccc1)c1ccccn1)C(C)C (stereo not given) [DISOPYRAMIDE]
3. ClC(Cl)(Cl)Cl [CARBON TETRACHLORIDE]
4. CCc1oc2ccccc2c1C(=O)c1cc(Br)c(O)c(Br)c1 [BENZBROMARONE]
5. CN(C)C(=N)N=C(N)N [METFORMIN]
6. O=NN(CCCl)C(=O)NC1CCCCC1 [LOMUSTINE]
7. CC1=C(CC(=O)O)c2cc(F)ccc2/C1=C\c1ccc([S+](C)[O-])cc1 (stereo not given)

Result:
1: 122.2; 2: 146.8; 3: 163; 4: 86.8; 5: 49; 6: 101; 7: 65.6

Go through the items and report each one's LDH.
1. CC[C@H]1[C@@H]2C[C@H]3[C@@H]4N(C)c5ccccc5[C@]45C[C@@H]([C@@H]2[C@H]5O)N3[C@@H]1O [AJMALINE]
2. CN(C)CCC=C1c2ccccc2COc2ccccc21 [DOXEPIN]

Result:
[82, 95]

---

Hi there, I'd appreciate the recorded ALP for every entry that follows.
Organism: Rattus norvegicus
Experiment: Open TG-GATES - Regimen: Single
Assay type: toxicity, organism-based, Sprague-Dawley
Design: regimen Single, gender Male, age 6 weeks
Conditions: in vivo, po, 100 mg/kg, 24 h, tissue Plasma, route gavage, dose level Low
Mention the unit after the number when you answer.

O=NN1CCOCC1 [N-NITROSOMORPHOLINE] :: 1723.6 IU/L
CN(C)CCC=C1c2ccccc2COc2ccccc21 [DOXEPIN] :: 2097.8 IU/L

Go through the items and report each one's ALP.
1. CN(C)C(=N)N=C(N)N [METFORMIN]
2. CCC1(c2ccccc2)C(=O)NC(=O)NC1=O [PHENOBARBITAL]

Result:
1: 1691 IU/L; 2: 1006.8 IU/L
